src = the supplement of paper PMC4466236

Catalogue of PBM 8-mer E-score readings, one per entry.
tested on: MvaT; test: PBM 8-mer E-score (mean of HK and ME arrays) (E-score (dimensionless, -0.5 to 0.5)); higher = stronger relative binding preference
Over roughly 33,000 sequences, “E-score (dimensionless, -0.5 to 0.5)” has its median near -0.058; the highest 2% begin near 0.35. The sample holds the highest values, similar sequences and a random draw of the others, so the mix is not that of the screen.

# query-sequence, assayed-target, PBM 8-mer E-score
measured = [
    ("AAGAGACT", "MvaT", -0.04),
    ("ATCAAGGC", "MvaT", -0.14),
    ("ATATAGTG", "MvaT", 0.329),
    ("CATTTACA", "MvaT", 0.339),
    ("CACCCAGA", "MvaT", -0.158),
    ("GATATAAA", "MvaT", 0.344),
    ("ATGTTATG", "MvaT", 0.152),
    ("CACTTATA", "MvaT", 0.326),
    ("AAATCTAC", "MvaT", -0.0273),
    ("ATGTTATA", "MvaT", 0.442),
    ("AGTGGGCA", "MvaT", 0.0126),
    ("AACCTACC", "MvaT", -0.156),
    ("CCTTTAAA", "MvaT", 0.211),
    ("ACAGTTAT", "MvaT", 0.305),
    ("ATATAGTA", "MvaT", 0.399),
    ("ACTTTAAT", "MvaT", 0.414),
    ("AACTGGGG", "MvaT", -0.149),
    ("CATATAAG", "MvaT", 0.35),
    ("AACTTACA", "MvaT", 0.33),
    ("GTATAGTA", "MvaT", 0.233),
    ("TATTTAAA", "MvaT", 0.433),
    ("GAGATAAC", "MvaT", 0.0136),
    ("AAATATAA", "MvaT", 0.442),
    ("ACCTTATA", "MvaT", 0.266),
    ("GCTTTAAA", "MvaT", 0.249),
    ("CTATAGTC", "MvaT", -0.0729),
    ("TCTATAAA", "MvaT", 0.103),
    ("CTGTTATC", "MvaT", 0.0487),
    ("ACTTTAAC", "MvaT", 0.326),
    ("GTGTTATA", "MvaT", 0.32),
    ("AAAATGAA", "MvaT", 0.226),
    ("ACTTTAAG", "MvaT", 0.254),
    ("GAAAGCGA", "MvaT", 0.0347),
    ("ACTTTTAA", "MvaT", 0.383),
    ("GATTTAAA", "MvaT", 0.395),
    ("TATTTAGA", "MvaT", 0.308),
    ("AAATATAC", "MvaT", 0.333),
    ("ACTTTTAG", "MvaT", 0.112),
    ("TCTTTTAA", "MvaT", 0.296),
    ("ATATAGTC", "MvaT", 0.361),
    ("TACTTATA", "MvaT", 0.389),
    ("AAAACGAC", "MvaT", 0.0691),
    ("GATTTGAA", "MvaT", 0.2),
    ("GATTTACA", "MvaT", 0.072),
    ("GATTTAAC", "MvaT", 0.245),
    ("CGGAGCCA", "MvaT", -0.2),
]
